Each recorded value in this set is attributed to patent US20250340623A1.

- Experimental Target: monomeric alpha-synuclein, P37840
- Experiment Description: SPR, captured mAb
- Assay Setup: remark: other sources report otherwise
# koff listing for each entry below
Give the number; s⁻¹ is assumed, so skip it.

Look over these answered cases.
{"Binder": "ACI-7079-2603F3-Ab1 (antibody, V domains shown) VH: EVQLVESGGGLVQPKGSLKLSCAASGFTFNTYAMHWVRQAPGKGLEWVARIRSKGSNYATYYADSVKDRFTISRDDSQSMLYLQMNNLKTEDTAMYYCVRGGGDSWFAYWGQGTLVTVSA VL: QIVLTQSPAIMSASPGERVTMTCTASSSVSYMHWYQQKSGTSPKRWIYDTSKLASGVPARFSGSGSGASYTLTISSMEAEDAATYYCQQWNSNPPTFGGGTQLAIK", "Measure Unit": "s⁻¹", "koff": 0.0149}
{"Binder": "ACI-8033-17F5-Ab1 (antibody, V domains shown) VH: EVQLQQSGPELVKPGASVKISCKASGYTFTDYFMNWVKQSHGKSLEWIGDINPNIDVTNYNQKFKGKATLTVDKSSSTAYMELRSLTSEDSAVYYCARGRDYAMDFWGQGTSVTVSS VL: DIVMSQSPSSLAVSAGEKVTMSCKSSQSLLNSRTRKNYLAWYQQKPGQSPKLLIYWASTRESGVPDRFTGSGSGTDFTLTISSVQAEDLAVYYCKQSYDLWTFGGGTKLEIK", "Measure Unit": "s⁻¹", "koff": 0.000232}
{"Binder": "ACI-7088-4303A3-Ab1 (antibody, V domains shown) VH: QVQLQQSGAELVRPGASVTLSCKASGYTFTDYEMHWVKQTPVHGLEWIGVIDPETGGAVQNQKFKGKAILTADNSSSTAYMDLRSLTSEDSAVYNCAMGAALRLAYWGQGTLVTVSS VL: DVLMTQTPLSLPVSLGDQASISCRSSQSIVHSNGNSYLEWYLQKPGQSPKLLIYKVSNRFSGVPDRFSGSGSGTDFTLKINRVEAEDLGVYYCFQGSHVPFTFGSGTKLEIK", "Measure Unit": "s⁻¹", "koff": 0.00107}
{"Binder": "ACI-7079-2602G4-Ab4 (antibody, V domains shown) VH: EVQLVESGGGLVQPKGSLKLSCAASGFTFKTYAMHWVRQAPGKGLEWVARIRSKGSDYATYYADSVKDRFTISRDDSQSMLYLQMNNLKTEDTAMYFCVRGGADSWFAYWGQGTLVTVST VL: QIVLTQSPAIMSASPGERITMTCTASSSVSYMHWYQQKSGTSPKRWIYDTSKLASGVPARFSGSGSGASYTLTISSMEAEDAATYYCQQWNRNPPTFGGGTQLAIK", "Measure Unit": "s⁻¹", "koff": 0.000867}
{"Binder": "ACI-7067-1102G3-Ab1 (antibody, V domains shown) VH: EVKLEESGGGLVQPGGSMKLSCAASGFTFSDAWMNWVRQSPEKGLEWVAEIRNKAHNHATYYAESVKGRFTISGDDSKSSVYLQMNNLRAEDTGIYYCTIYSYWGQGTLVTVSA VL: SIVMTQTPKFLLVSAGDRVTITCKASQSVTKDVAWYQQKPGQSPKLLIYSTSNRYSGVPDRFTGSGYGTDFTFTINTVQTEDLAVYFCQQDYRIPYTFGGGTKLEIK", "Measure Unit": "s⁻¹", "koff": 0.00103}

State its koff for this binder: ACI-8033-18D12-Ab1 (antibody, V domains shown) VH: QVQLQQPGAELVKPGASVKMSCKASGYTFTSYWITWVRQRPGQGLDWIGDIYPGGGVTNYNEKFKTKATLTVDTSSSTAYMHLSSLTSEDSAVYFCATAQTTFAHWGQGTLVTVSA VL: DVLMTQTPLSLPVSLGDQASISCRSSQNIAHNNGNTYLEWYLQKPGQSPKLLIYKVSNRFSGVPDRFSGSGSGTDFTLKISRVEAEDLGVYYCFQGSHVPRTFGGGTKLEIK
0.26

Supply recorded koff for ACI-7079-2507B3-Ab1 (antibody, V domains shown) VH: EVQLVESGGGLVQPKGSLKVSCAASGFTFKTYAMHWVRQAPGKGLEWVARIRSENSNFAKYYADSVKDRFTISRDDSQSMLYLQMHTLKTEDTAIYYCVRGYNGSSLDYWGQGTTLTVSS VL: QIVLTQSPAIMSAFPGERVTMTCSASSSVNYMHWYQQKSGTSPKRWIYDTSKLASGVPARFSGGGSGTSYSLTISNMEAEDAATYYCQQWRSNPPTFGGGTKLEIK here.
0.000642

# return recorded koff for entry ACI-7088-4301H3-Ab2 (antibody, V domains shown) VH: EVQLQQSGPELVKPGASVKISCKASGYTFADYFMNWVKQSHGKSLEWIGDINPNNGGTTYNQKFKGKATLTVDKSSNTAYMELRSLTSEDSAVYYCARGRNYAMDYWGQGTSVTVSS VL: DIVMSQSPSSLAVSAGEKVTMSCKSSQSLLNSRTRKNYLAWYQQKPGQSPKLLIYSASTRESGVPDRFTGSGFGTDFTLTISSVQAEDLAVYYCKQSYDLWTFGGGTKLEIK
0.00329

Quick one: give measured koff for ACI-7079-2506E2-Ab2 (antibody, V domains shown) VH: QVQLQQSGPELVRPGASVKISCKASGYAFSNSWMNWVKQRPGKGLEWIGRIFPGDGDTYYDGKFKGKVKLTTDKFSNTAYMQLRSLTSEDSAVYFCARWGGTNDEWFAHWGQGTLVTVSV VL: DIVLTQSPASLTVSLGQRATISCRASQSVSTSRNSYMHWYQQKPRQPPKLLIKYASNLESGVPARFSGSGSGADFTLNIHPVEEEDTATYYCQHSWDIPLTFGTGTKLELS
0.000615

Input ACI-7088-4303H6-Ab1 (antibody, V domains shown) VH: EVQLQQSGAELVRPGASVKLSCTASGFNIQDDYMHWVKQRPEQGLEWIGWIDPENGDTEYASKFQGKATLTADTSSNTAYLQLSRLTSEDTAVYYCTTAGSGVQLFDYWGQGTTLTVSA VL: DILMTQSQKFMSTSVGDRVSVTCKASQNVGTNVAWYQQKPGQSPKPLISSASSRYSGVPDRFTGSGSGTDFTLTISNVQSEDLADYFCQQYNRYPLTFGAGTKLELK , output reported koff.
0.0067

Hello, please tell me recorded koff for this one: ACI-7088-4317A4-Ab1 (antibody, V domains shown) VH: EVQLQQSGAELVRPGASVKLSCTASGFNIKDDYMHWVKQRPEQGLEWIGWIDPENGDTEYASKFQGKATMTADTSSNTAYLQLSSLTSEDTAVYYCKTWGTTQALFPYWGQGTLVTVSA VL: DIVMTQSQKFMYTSVGDRVSITCKASQNVGNAVGWYQQKAGQSPKLLIHSASNRYTGVPDRFTGTGSGTDFTLTINNMQSEDLADYFCQQYRSYPLTFGAGTKLELK
0.012
